- Target Desc: T1, CT45 (CT45A1, A2, A3, A5 to A10); CT45-IP peptide on HLA-A*02:01 (human)
- T1 peptide: KIFEMLEGV
- Assay Protocol: luciferase release, 24 h, 1:1; CD8+ T cells with TCR mRNA, T2 cells with titrated peptide; full-length, on cells
Quick reference for EC50 of peptide among some binders
Give a bare numeral; the unit nM is implied.

TCR-12 (TCR, V domains shown) Valpha: QLLEQSPQFLSIQEGENLTVYCNSSSVFSSLQWYRQEPGEGPVLLVTVVTGGEVKKLKRLTFQFGDARKDSSLHITAAQPGDTGLYLCAGGLSDSYDKVIFGPGTSLSVIP Vbeta: EVTQTPKHLVMGMTNKKSLKCEQHMGHRAMYWYKQKAKKPPELMFVYSYEKLSINESVPSRFSPECPNSSLLNLHLHALQPEDSALYLCASSQGVGQEYGYTFGSGTRLTVV
47.5
TCR-6 (TCR, V domains shown) Valpha: QKEVEQDPGPLSVPEGAIVSLNCTYSNSAFQYFMWYRQYSRKGPELLMYTYSSGNKEDGRFTAQVDKSSKYISLFIRDSQPSDSATYLCAMSGNSGARDYGNNRLAFGKGNQVVVIP Vbeta: EVTQTPKHLVMGMTNKKSLKCEQHMGHRAMYWYKQKAKKPPELMFVYSYEKLSINESVPSRFSPECPNSSLLNLHLHALQPEDSALYLCASATWEEAGPYNEQFFGPGTRLTVL
3.25
TCR-1 (TCR, V domains shown) Valpha: QTVTQSQPEMSVQEAETVTLSCTYDTSENNYYLFWYKQPPSRQMILVIRQEAYKQQNATENRFSVNFQKAAKSFSLKISDSQLGDTAMYFCAPLGLVAGSARQLTFGSGTQLTVLP Vbeta: GVSQDPRHKITKRGQNVTFRCDPISEHNRLYWYRQTLGQGPEFLTYFQNEAQLEKSRLLSDRFSAERPKGSFSTLEIQRTEQGDSAMYLCASSTDITSYEQYFGPGTRLTVT
7.78
TCR-4 (TCR, V domains shown) Valpha: QSVAQPEDQVNVAEGNPLTVKCTYSVSGNPYLFWYVQYPNRGLQFLLKYITGDNLVKGSYGFEAEFNKSQTSFHLKKPSALVSDSALYFCAAPRDDKIIFGKGTRLHILP Vbeta: GVTQTPKFRVLKTGQSMTLLCAQDMNHEYMYWYRQDPGMGLRLIHYSVGEGTTAKGEVPDGYNVSRLKKQNFLLGLESAAPSQTSVYFCASSYLRTGGNEQFFGPGTRLTVL
1.31

Turning to the following binder.
So what does the record say about EC50 of peptide for TCR-5 (TCR, V domains shown) Valpha: QQLNQSPQSMFIQEGEDVSMNCTSSSIFNTWLWYKQDPGEGPVLLIALYKAGELTSNGRLTAQFGITRKDSFLNISASIPSDVGIYFCAGGYNYGQNFVFGPGTRLSVLP Vbeta: GVTQTPKHLITATGQRVTLRCSPRSGDLSVYWYQQSLDQGLQFLIQYYNGEERAKGNILERFSAQQFPDLHSELNLSSLELGDSALYFCASSAGLAGGYEQYFGPGTRLTVT ?
1.32
